For human cytochrome P450 (CYP) 3A4 (Homo sapiens, UniProt P08684), measured IC50 is reported for the entries below.

smilesNotation | result
COc1cc(Nc2cc(C)n[nH]2)nc(N2CCC[C@H]2c2cc(-c3ncccn3)no2)n1 | > 10 µM

Recorded IC50 for `CCc1cc(Nc2cc(OC)nc(N3CCC[C@H]3c3cc(-c4ncccn4)no3)n2)n[nH]1` , please?
> 10 µM

###

# measurementProtocol: LogD (shake flask method)
# Assay type: physicochemical
# From the text: LogD can be measured using the generic shake flask method as described in Lars-Goran Danielsson, Yu Hui Zhang, Trends in Analytical Chemistry, 1996, 15(4), 188-196, and also by the method described in B. Law and D. Temesi, J. Chromatogr. B 748 (2000), 21-30.
measuredAttribute: logD

compound | logD
CCc1cc(Nc2cc(OC)nc(N3CCC[C@H]3c3cc(-c4ncccn4)no3)n2)n[nH]1 [Comparative Example A] | 3.43
COc1cc(Nc2cc(C)n[nH]2)nc(N2CCC[C@H]2c2cc(-c3ncccn3)no2)n1 [Example 1] | 3.12

###

# measuredOn: human cytochrome P450 (CYP) 2C9 (Homo sapiens, UniProt P11712)
# Sequence (P11712 whole entry): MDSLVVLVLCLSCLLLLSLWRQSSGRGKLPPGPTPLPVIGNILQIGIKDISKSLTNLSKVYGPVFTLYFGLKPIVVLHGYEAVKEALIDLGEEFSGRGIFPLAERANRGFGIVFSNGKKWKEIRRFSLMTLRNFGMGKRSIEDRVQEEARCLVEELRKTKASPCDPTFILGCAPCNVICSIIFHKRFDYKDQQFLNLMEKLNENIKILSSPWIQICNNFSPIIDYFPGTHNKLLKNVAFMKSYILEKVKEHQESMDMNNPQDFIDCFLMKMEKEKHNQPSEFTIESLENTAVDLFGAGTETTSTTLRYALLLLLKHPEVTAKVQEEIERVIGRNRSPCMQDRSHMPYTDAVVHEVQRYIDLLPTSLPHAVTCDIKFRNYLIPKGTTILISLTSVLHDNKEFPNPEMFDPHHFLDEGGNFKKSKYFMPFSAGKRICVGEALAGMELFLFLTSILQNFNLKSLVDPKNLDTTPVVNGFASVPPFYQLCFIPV
measuredAttribute: IC50

Recorded IC50 for CCc1cc(Nc2cc(OC)nc(N3CCC[C@H]3c3cc(-c4ncccn4)no3)n2)n[nH]1 [Comparative Example A] , please?
> 10 µM

###

# measurementProtocol: Solubility in 0.1 M phosphate buffer pH 7.4
# Assay type: physicochemical
# setupConditions: phosphate buffer, 25 °C, pH 7.4, aqueous buffer, thermodynamic from solid, pH 7.4, 24 h
measuredAttribute: solubility at 24 h (µM)
Number in µM, nothing else.

Recorded solubility at 24 h for CCc1cc(Nc2cc(OC)nc(N3CCC[C@H]3c3cc(-c4ncccn4)no3)n2)n[nH]1 [Comparative Example A] , please?
9.24

###

# measuredOn: hERG (human ether-a-go-go-related gene) ion channel (Homo sapiens, UniProt Q12809)
# Sequence (Q12809 whole entry): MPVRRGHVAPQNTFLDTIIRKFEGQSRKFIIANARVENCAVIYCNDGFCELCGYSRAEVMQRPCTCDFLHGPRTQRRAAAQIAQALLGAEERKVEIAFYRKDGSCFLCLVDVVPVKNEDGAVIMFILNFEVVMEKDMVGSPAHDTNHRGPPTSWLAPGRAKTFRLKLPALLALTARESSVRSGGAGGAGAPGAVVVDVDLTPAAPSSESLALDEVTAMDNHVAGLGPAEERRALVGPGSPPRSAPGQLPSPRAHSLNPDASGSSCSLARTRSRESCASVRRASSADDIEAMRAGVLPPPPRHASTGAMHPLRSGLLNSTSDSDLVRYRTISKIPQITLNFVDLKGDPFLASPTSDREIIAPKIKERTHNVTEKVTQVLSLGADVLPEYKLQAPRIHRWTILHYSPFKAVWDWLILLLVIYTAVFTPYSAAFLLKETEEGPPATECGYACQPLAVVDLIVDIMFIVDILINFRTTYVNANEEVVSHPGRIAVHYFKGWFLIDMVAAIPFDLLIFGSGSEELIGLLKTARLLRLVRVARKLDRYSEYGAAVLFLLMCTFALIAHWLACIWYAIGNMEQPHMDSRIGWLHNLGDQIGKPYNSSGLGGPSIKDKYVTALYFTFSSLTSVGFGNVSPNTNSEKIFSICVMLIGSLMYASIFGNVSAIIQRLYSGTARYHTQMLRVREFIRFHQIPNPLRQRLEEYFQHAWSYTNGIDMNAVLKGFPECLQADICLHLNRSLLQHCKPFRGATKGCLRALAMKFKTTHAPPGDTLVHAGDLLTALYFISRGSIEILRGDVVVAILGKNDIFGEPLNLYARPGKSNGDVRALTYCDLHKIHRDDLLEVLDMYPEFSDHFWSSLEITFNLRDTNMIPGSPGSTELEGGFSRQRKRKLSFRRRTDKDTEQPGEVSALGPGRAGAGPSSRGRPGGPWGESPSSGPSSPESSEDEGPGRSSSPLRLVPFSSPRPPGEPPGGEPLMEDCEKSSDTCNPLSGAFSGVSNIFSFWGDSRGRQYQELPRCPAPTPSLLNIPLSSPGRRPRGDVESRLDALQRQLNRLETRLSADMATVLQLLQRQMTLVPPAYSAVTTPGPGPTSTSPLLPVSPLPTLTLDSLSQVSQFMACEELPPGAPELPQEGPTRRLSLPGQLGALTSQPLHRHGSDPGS
# measurementProtocol: hERG
measuredAttribute: IC50 (µM)
Number in µM, nothing else.

Recorded IC50 for CCc1cc(Nc2cc(OC)nc(N3CCC[C@H]3c3cc(-c4ncccn4)no3)n2)n[nH]1 [Comparative Example A] , please?
25.2

###

# measurementProtocol: Protein binding by equilibrium dialysis
# Format: in vitro ADME
# setupConditions: rat, equilibrium dialysis against 10% plasma, 37° C., read-out: Protein binding, % free
measuredAttribute: fraction unbound at 18 h, 20 µM

P: COc1cc(Nc2cc(C)n[nH]2)nc(N2CCC[C@H]2c2cc(-c3ncccn3)no2)n1
Q: CCc1cc(Nc2cc(OC)nc(N3CCC[C@H]3c3cc(-c4ncccn4)no3)n2)n[nH]1
Hi! Which is lower in terms of fraction unbound at 18 h, 20 µM, the first one P or the second one Q ? When you have decided, please share the label of that item.
Q
(Q: 0.0205, P: 0.0523)

###

# measuredOn: human IGF1R (Homo sapiens, UniProt P08069)
# Sequence (P08069 31-1367): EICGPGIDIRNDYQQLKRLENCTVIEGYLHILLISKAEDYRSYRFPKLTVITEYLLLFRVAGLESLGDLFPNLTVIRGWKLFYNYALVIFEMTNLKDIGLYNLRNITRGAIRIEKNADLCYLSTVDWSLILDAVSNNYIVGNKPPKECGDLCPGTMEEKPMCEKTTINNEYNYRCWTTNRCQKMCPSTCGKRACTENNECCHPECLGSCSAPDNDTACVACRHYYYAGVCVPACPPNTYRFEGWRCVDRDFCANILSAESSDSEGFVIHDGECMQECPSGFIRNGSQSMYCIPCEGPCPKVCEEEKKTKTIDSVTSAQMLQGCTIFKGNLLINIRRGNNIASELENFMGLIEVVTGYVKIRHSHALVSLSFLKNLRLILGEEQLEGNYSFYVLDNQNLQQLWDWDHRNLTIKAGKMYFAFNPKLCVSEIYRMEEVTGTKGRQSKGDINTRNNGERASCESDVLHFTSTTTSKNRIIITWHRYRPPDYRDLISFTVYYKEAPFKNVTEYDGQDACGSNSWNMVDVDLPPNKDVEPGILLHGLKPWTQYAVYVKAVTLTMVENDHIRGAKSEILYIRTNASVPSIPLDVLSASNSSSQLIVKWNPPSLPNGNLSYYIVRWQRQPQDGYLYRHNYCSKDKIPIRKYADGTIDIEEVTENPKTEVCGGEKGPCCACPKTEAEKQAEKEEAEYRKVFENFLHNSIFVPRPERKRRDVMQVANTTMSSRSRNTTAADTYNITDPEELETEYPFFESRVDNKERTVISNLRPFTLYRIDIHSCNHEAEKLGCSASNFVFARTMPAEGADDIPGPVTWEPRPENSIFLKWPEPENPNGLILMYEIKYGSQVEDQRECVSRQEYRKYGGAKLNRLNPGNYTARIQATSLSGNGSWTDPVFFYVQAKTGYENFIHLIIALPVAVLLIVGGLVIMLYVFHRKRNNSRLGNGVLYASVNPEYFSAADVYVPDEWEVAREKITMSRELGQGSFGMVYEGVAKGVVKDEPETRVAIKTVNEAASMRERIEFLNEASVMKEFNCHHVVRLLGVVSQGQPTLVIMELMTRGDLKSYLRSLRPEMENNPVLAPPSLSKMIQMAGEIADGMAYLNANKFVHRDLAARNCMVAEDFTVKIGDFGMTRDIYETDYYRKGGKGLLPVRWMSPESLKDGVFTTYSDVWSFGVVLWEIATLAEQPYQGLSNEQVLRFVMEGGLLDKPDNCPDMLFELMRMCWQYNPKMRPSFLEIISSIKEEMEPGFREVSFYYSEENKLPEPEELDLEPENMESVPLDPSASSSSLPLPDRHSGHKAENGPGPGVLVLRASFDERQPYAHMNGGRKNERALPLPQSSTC
# measurementProtocol: Inhibition of Insulin-Like Growth Factor-1 Receptor Phosphorylation in R+ cells
# setupConditions: median; R+ cells stimulated with 30 nM IGF1
measuredAttribute: IC50 (nM)

a: CCc1cc(Nc2cc(OC)nc(N3CCC[C@H]3c3cc(-c4ncccn4)no3)n2)n[nH]1
b: COc1cc(Nc2cc(C)n[nH]2)nc(N2CCC[C@H]2c2cc(-c3ncccn3)no2)n1
Hi! Which is lower in terms of IC50, the first one a or the second one b ? When you have decided, please share the label of that item.
a

###

# measuredOn: human cytochrome P450 (CYP) 1A2 (Homo sapiens)
# Sequence (P05177 1-516): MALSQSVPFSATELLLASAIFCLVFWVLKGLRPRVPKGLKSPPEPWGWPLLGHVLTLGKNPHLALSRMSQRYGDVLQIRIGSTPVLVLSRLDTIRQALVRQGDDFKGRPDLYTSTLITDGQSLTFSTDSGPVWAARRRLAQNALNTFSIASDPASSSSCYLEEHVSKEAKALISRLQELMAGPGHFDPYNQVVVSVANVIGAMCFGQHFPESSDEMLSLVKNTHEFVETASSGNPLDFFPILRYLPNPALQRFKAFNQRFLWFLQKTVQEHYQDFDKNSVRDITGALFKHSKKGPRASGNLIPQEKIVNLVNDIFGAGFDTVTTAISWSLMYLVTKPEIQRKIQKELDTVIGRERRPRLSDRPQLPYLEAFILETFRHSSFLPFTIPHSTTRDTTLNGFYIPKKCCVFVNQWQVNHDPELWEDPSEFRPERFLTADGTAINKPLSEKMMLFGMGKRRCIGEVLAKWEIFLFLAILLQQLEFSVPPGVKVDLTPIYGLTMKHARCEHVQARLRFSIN
measuredAttribute: pIC50
In simple prose, pIC50 is minus the logarithm base ten of a concentration in moles per litre.

Recorded pIC50 for `CCc1cc(Nc2cc(OC)nc(N3CCC[C@H]3c3cc(-c4ncccn4)no3)n2)n[nH]1` , please?
5.73
